This collection of values is drawn from patent US11739098B2.

This listing pairs compounds with measured IC50.
Molecular target: human TLR8 (Homo sapiens, UniProt Q9NR97)
Sequence (Q9NR97 27-1041): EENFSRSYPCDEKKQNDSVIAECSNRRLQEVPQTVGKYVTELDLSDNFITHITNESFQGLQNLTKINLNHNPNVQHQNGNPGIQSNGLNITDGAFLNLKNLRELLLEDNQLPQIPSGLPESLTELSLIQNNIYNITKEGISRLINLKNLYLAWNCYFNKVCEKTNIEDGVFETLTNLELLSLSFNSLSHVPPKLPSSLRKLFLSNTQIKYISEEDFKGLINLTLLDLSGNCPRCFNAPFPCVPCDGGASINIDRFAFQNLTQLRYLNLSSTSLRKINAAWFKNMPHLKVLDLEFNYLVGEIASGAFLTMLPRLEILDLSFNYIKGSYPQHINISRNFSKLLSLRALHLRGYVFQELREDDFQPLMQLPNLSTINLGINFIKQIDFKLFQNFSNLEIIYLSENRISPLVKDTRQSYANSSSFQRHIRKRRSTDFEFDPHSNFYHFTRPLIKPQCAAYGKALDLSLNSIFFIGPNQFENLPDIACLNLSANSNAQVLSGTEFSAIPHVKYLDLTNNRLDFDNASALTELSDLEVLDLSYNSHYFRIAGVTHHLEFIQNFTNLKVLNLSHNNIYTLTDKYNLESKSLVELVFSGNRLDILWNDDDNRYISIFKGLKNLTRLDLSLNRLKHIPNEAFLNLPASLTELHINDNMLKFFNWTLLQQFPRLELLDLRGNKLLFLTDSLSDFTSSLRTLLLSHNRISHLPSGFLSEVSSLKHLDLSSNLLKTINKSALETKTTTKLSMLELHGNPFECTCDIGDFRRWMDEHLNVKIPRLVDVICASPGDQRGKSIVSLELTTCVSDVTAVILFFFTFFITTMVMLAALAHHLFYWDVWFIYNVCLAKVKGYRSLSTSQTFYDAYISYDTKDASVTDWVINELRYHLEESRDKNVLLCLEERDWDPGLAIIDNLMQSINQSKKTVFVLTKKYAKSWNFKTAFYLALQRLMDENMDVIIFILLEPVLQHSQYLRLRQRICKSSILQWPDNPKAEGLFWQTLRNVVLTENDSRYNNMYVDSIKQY
Assay: TLR8 inhibition reporter assay (HEK-Blue cells, SEAP reporter, R848 stimulation)
Details: HEK-Blue cells overexpressing human TLR8, SEAP reporter, R848 15.9 μM
MEASURED_PROPERTY: IC50

>>> reported("CC(C)c1c(-c2cc(Cl)cc3nccn23)[nH]c2ccc(C3CCNCC3)cc12")
"< 100 nM"
>>> reported("Cc1c(-c2ccnc3[nH]nc(C)c23)[nH]c2ccc(C3CCNCC3)cc12")
"< 100 nM"
>>> reported("CC(C)c1c(-c2ccc3nccn3c2)[nH]c2ccc(C3CCN(C(=O)C4CC(=O)N(C)C4)CC3)cc12 (stereo not shown)")
"100 to 1000 nM"
>>> reported("CC(C)c1c(-c2cnc3ccnn3c2)[nH]c2ccc(C3CCN(C(=O)C[C@H](C)O)CC3)cc12")
"> 3130 nM"
>>> reported("CC(C)c1c(-c2cccn3ncnc23)[nH]c2ccc(C3CCN(CC(=O)N(C)C)CC3)cc12")
"100 to 1000 nM"
>>> reported("Cc1cc(-c2[nH]c3ccc(C4CCN(C(=O)CN(C)C)CC4)cc3c2C(C)C)cn2ccnc12")
"< 100 nM"
>>> reported("Cc1cnc2ccc(-c3[nH]c4ccc(C5CCNCC5)cc4c3C(C)C)cn12")
"100 to 1000 nM"
>>> reported("CNC(=O)CN1CCC(c2ccc3[nH]c(-c4cc(C)c5nccnc5c4)c(C(C)C)c3c2)CC1")
"100 to 1000 nM"
>>> reported("Cc1c(-c2ccnc3[nH]cc(-c4ccccc4)c23)[nH]c2ccc(C3CCNCC3)cc12")
"1000 to 50000 nM"
>>> reported("CCc1c(-c2ccnc3[nH]ncc23)[nH]c2ccc(C3CCN(Cc4csnn4)CC3)cc12")
"< 100 nM"
>>> reported("CC(C)c1c(-c2ccnc3[nH]ncc23)[nH]c2ccc(C3CCN(C4CCOCC4)CC3)cc12")
"< 100 nM"
>>> reported("Cc1cc(-c2[nH]c3ccc(C4CCN(CC(N)=O)CC4)cc3c2C(C)C)cn2nnnc12")
"< 100 nM"
>>> reported("Cc1nc2cc(-c3[nH]c4ccc(C5CCN(CC(=O)N(C)C)CC5)cc4c3C(C)C)ccn2n1")
"100 to 1000 nM"
>>> reported("CC(C)c1c(-c2ccc3ncsc3c2)[nH]c2ccc(C3CCN(CC(=O)N(C)C)CC3)cc12")
"< 100 nM"
>>> reported("CC(C)c1c(-c2cnc3c(cnn3C)c2)[nH]c2ccc(C3CCNCC3)cc12")
"< 100 nM"
>>> reported("Cc1cc2nnnn2cc1-c1[nH]c2ccc(C3CCN(C(=O)CN(C)C)CC3)cc2c1C(C)C")
"100 to 1000 nM"
>>> reported("Cc1c(-c2[nH]c3ccc(C4CCN(CCS(C)(=O)=O)CC4)cc3c2C(C)C)cn2nnnc2c1C")
"< 100 nM"
>>> reported("Cc1cc(-c2[nH]c3ccc(C4CCN(C(=O)CCN5[C@@H]6CC[C@H]5COC6)CC4)cc3c2C(C)C)cn2nnnc12")
"< 100 nM"
>>> reported("CCc1c(-c2cnc3cc(C)cnn23)[nH]c2ccc(C3CCNCC3)cc12")
"1000 to 50000 nM"
>>> reported("CC(C)c1c(-c2ccnc3[nH]ncc23)[nH]c2ccc(C3CCN(CCN)CC3)cc12")
"< 100 nM"
>>> reported("Cc1cc(-c2[nH]c3ccc(C4CCN(C(=O)CN5CC(C)(C)OC(C)(C)C5)CC4)cc3c2C(C)C)cn2nnnc12")
"100 to 1000 nM"
>>> reported("Cc1cc(-c2[nH]c3ccc(C4CCN(C(=O)CN(C)C)CC4)cc3c2C(C)C)cc2nccn12")
"100 to 1000 nM"
>>> reported("CC(C)c1c(-c2nc3c(s2)CNCC3)[nH]c2ccc(C3CCNCC3)cc12")
"1000 to 50000 nM"
>>> reported("Cc1cc(-c2[nH]c3ccc(C4CCN(C(=O)CN(C)C)CC4)cc3c2C(C)C)cc2cccnc12")
"< 100 nM"
>>> reported("Cc1cc(-c2[nH]c3ccc(C4CCN(CCCC(F)(F)F)CC4)cc3c2C(C)C)cn2nnnc12")
"< 100 nM"
>>> reported("Cc1nc2c(C)cc(-c3[nH]c4ccc(C5CCN(C(=O)CN(C)C)CC5)cc4c3C(C)C)cn2c1C")
"100 to 1000 nM"
>>> reported("CCc1c(-c2ccc3ncc(C#N)n3n2)[nH]c2ccc(C3CCNCC3)cc12")
"1000 to 50000 nM"
>>> reported("CCC(C)NCC(=O)N1CCC(c2ccc3[nH]c(-c4ccnc5[nH]ncc45)c(C(C)C)c3c2)CC1 (stereo not shown)")
"< 100 nM"
>>> reported("CC(C)c1c(-c2cn3ccnc3cc2C(F)(F)F)[nH]c2ccc(C3CCN(CC(=O)N(C)C)CC3)cc12")
"< 100 nM"
>>> reported("CCCN1CCC(c2ccc3[nH]c(-c4cc(OC)c5ncnn5n4)c(C(C)C)c3c2)CC1")
"< 100 nM"
>>> reported("Cc1cc(-c2[nH]c3ccc(C4CCNCC4)cc3c2C(C)C)cc2[nH]c(=O)oc12")
"100 to 1000 nM"
